target: full length human BTLA expressed on cells (human, UniProt Q7Z6A9 31-289); assay: cell-based or functional assay; also: test concentration or dose not given here
Reported T cell reporter (NFκB signaling) is given for each of the following binders.
Kindly provide the numeric value in % inhibition only, without the unit symbol.

INSERT INTO measurements (binder, measured) VALUES
  ('12F11 (antibody, IgG1, V domains shown, mIgG1) VH: EVQLQQSGPELVKPGASVKISCKASGYTFTDYYMNWVKQSHGKSLEWIGDINPNNGGTSYNQKFKGKATLTVDKSSSTAYMELRSLTSEDSAVYYCARWRQLRSDYWGQGTTLTVSS VL: DIQMTQSPASQSASLGESVTITCLASQTIGTWLAWYQQKPGKSPQLLIYAATSLADGVPSRFSGSGSGTKFSFKISSLQAEDFVSYYCQQLYSTPLTFGAGTKLELK', 30),
  ('8C4 (antibody, IgG1, V domains shown, mIgG1) VH: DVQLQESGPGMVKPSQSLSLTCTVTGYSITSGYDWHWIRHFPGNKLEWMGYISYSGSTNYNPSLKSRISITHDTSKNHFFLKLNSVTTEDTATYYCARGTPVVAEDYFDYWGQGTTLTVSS VL: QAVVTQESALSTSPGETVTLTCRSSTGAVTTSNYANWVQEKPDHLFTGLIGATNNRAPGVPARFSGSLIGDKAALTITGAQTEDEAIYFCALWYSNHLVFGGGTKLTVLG', 21);

Prompt: What does the data say about its T cell reporter (NFκB signaling)? Entry: 831 (antibody, IgG1, V domains shown) VH: DVQLQESGPDLVKPSQSLSVTCTVTGYSITSGYSWHWIRQFPGNKLEWMGYIHYSGSTNYNPSLKSRISITRDTSKNQFFLQLSSVTTEDTATYYCASGPHRYDGVWFAYWGQGTLVTVSS VL: EIVLTQSPTTMAASPGEKITITCSASSSISSNYLHWYQQKPGFSPKLLIYRTSNLASGVPARFSGSGSGTSYSLTIGTMEAEDVATYYCQQGTNIPLTFGAGTKLEIK
Response: 24

Prompt: What does the data say about its T cell reporter (NFκB signaling)? Entry: 4B1 (antibody, IgG1, V domains shown, mIgG1) VH: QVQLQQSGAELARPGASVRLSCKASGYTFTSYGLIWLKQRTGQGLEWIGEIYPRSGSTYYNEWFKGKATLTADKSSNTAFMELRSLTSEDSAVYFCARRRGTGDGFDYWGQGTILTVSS VL: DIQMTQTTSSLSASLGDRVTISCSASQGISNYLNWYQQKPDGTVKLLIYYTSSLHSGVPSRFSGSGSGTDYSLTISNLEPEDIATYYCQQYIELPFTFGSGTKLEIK
Response: 23

Prompt: What does the data say about its T cell reporter (NFκB signaling)? Entry: 24H7 (antibody, IgG1, V domains shown, mIgG1) VH: QVQLQQSGAELVRPGASVTLSCKASGYTFTDYEIHWVKQTLVHGLEWIGPIDPDTGNTAYNQNLKGKAILTADKSSSTAYMELRSLTSEDSAVYYCTRGGYDSDWGFAYWGQGTLVTVSA VL: DIVMTQATPSVPVTPGESVSISCRSSKSLLHSNGNTFLFWFLQRPGQSPQLLIYRMSDLASGVPDRFSGSGSGTAFTLRISRVEAEDVGIYYCMQHLEYPFTFGSGTKLEIK
Response: 22

Prompt: What does the data say about its T cell reporter (NFκB signaling)? Entry: 4H4 (antibody, IgG1, V domains shown, mIgG1) VH: QVQLQQSGAELARPGASVKLSCKASGYTFTSYGISWVKQRTGQGLEWIGEIYPRSGNTYYNEKFKGKATLTADKSSSTAYMELRSLTSEDSAVYFCARRRGAGDGFDYWGQGTTLTVSS VL: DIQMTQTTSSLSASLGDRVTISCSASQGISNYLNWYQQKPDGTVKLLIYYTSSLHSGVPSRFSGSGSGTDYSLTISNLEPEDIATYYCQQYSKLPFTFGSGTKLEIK
Response: 25

Prompt: What does the data say about its T cell reporter (NFκB signaling)? Entry: 21C7 (antibody, IgG1, V domains shown, mIgG1) VH: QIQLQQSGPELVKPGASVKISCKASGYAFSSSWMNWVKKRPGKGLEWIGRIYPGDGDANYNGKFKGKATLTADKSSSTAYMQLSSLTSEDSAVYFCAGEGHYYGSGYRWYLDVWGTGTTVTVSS VL: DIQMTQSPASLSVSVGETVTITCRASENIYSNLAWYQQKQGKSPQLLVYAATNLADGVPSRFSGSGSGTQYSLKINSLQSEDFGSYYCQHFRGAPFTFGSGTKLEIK
Response: 23
